Test system: EKVX NSCLC
protocol_description: NCI-60 one-dose screen, 48 h (100 = growth as untreated, 0 = no growth, -100 = all killed)
protocol_conditions: 10 µM
Compounds without any hit were thinned out: in the full panel of roughly 83,000, 20% have a hit.
metric_name: growth (%)
Supply the numeric figure in %, leaving out any unit text.

Returns the measured growth for the input molecule. Input: CC1=C(/C=C/C(C)=C/C=C/C(C)=C/CO)C(C)(C)CCC1
108

Entry Oc1ccc2c(c1)OCC1(O)Cc3cc(O)c(O)cc3C21 (configuration not stated) please
107

Entry N#C/C(=C\c1cc(O)c(O)c(O)c1)C(N)=O please
97.4

Entry c1ccc(Cc2ccccc2)cc1 please
102

Entry O=S(=O)(O)c1ccc(O)c2ccccc12 please
88.9

Entry COc1ccc(C2OC(N)=C(O)C2=O)cc1OC (configuration not stated) please
94.3

Entry CC(C)(O)C#CC#CC(C)(C)O please
99.5

Entry COc1cc(OC)c2ccc(=O)oc2c1 please
95.2

Entry C=CCNC(=O)c1ccc(OC)cc1 please
109

Entry Cc1cc(NC(=O)CSCC(=O)O)no1 please
93.8

Entry CCOC(=O)CCCS(C)(=O)=O please
113

Entry CCCCCCCCOC(=O)c1ccccn1 please
107

Entry CC1=NN(c2ccccc2)C(=O)/C1=C\N1CC(=O)NC1=S please
105

Entry CN(C)c1ccc(CNC(C(=O)c2ccccc2)c2ccccc2)cc1 (configuration not stated) please
101

Entry CS(=O)CC1=NC(=N)N=C1CS(C)=O (configuration not stated) please
98.7

Entry c1cc[n+](C2c3ccccc3C([n+]3ccccc3)c3ccccc32)cc1 (configuration not stated) please
48.3

Entry CCOC(=O)c1cc(/C=C/c2cccc(Cl)c2)on1 please
75.4

* * *

System: SK-OV-3 ovarian
protocol_description: NCI-60 one-dose screen, 48 h (100 = growth as untreated, 0 = no growth, -100 = all killed)
protocol_conditions: 10 µM
Compounds without any hit were thinned out: in the full panel of roughly 83,000, 20% have a hit.
growth by entry:
Supply the numeric figure in %, leaving out any unit text.

Would you please look over these solved cases?
1. OC(c1ccccn1)C(O)c1ccccn1 (configuration not stated) : 103
2. O=[N+]([O-])c1ccccc1N=Nc1ccc(O)cc1O : 101
3. CNC(=S)NC(C)(C)C : 105

Record lookup: for SK-OV-3 ovarian, what growth belongs to O=C(/C(=N/O)c1ccccc1)c1ccccc1 ?
106

Entry C/C(=C\c1ccc([N+](=O)[O-])cc1)C(=O)O please
104

Entry O=c1c2ccccc2c(Br)c(Br)c2ccccc12 please
109

* * *

growth by entry:
Test system: TK-10 renal
protocol_description: NCI-60 one-dose screen, 48 h (100 = growth as untreated, 0 = no growth, -100 = all killed)
protocol_conditions: 10 µM unless noted
Compounds without any hit were thinned out: in the full panel of roughly 83,000, 20% have a hit. The source made the active and inactive calls. How the source made its calls: active means growth percent below 10; inactive means the rest.

Returns the measured growth for the input compound. Input: Cc1ccc(C)n1-c1ccsc1C(=O)NNC(=O)CCl
105% (inactive)

Entry CCN(CC)CCCC(C)Nc1ccnc(/C=C/c2ccc(Cl)cc2)c1 (stereo not drawn) please
-38.8% (active)

Entry N#Cc1ccc(NC(=O)Nc2cccc(C#N)c2)cc1 please
113% (inactive)

Entry CCCCCCCO please
117% (inactive)

Entry Cc1cccc(C(=O)N(C(C)C)C(C)C)c1 please
87% (inactive)

Entry Cc1cc(N2CCC(N3CCCC3)CC2)nc(/N=C(\N)Nc2ccc(Cl)c(Cl)c2)n1 please
-86.3% (active)

Entry Cc1cc2ccccc2c(O)c1C#N please
110% (inactive)

Entry CC(O)COc1ccc(-c2ccccc2)cc1 (stereo not drawn) please
106% (inactive)

* * *

Tested on: HCT-15 colon
protocol_description: NCI-60 one-dose screen, 48 h (100 = growth as untreated, 0 = no growth, -100 = all killed)
protocol_conditions: 10 µM
Compounds without any hit were thinned out: in the full panel of roughly 83,000, 20% have a hit.
metric_name: growth (%)
Supply the numeric figure in %, leaving out any unit text.

1) CC(C)(O)C#CC#CC(C)(C)O : 97.7
2) Nc1ccc(NC(=O)c2cccc(N)c2)cc1 : 101
3) COc1ccc2c(c1)CCc1c-2n[nH]c1-c1[nH]nc2c1CCc1cc(OC)ccc1-2 : 35.6
4) O=C(O)c1cc([N+](=O)[O-])ccc1Cl : 100
5) [O-][N+](=Nc1cccc(Cl)c1)c1cccc(Cl)c1 : 78.1

Returns the measured growth for the input compound. Input: c1cc2cccc3c4cccc5cccc(c(c1)c23)c54
99.9

Entry Cc1c(O)cccc1O please
116

Entry Cc1cc(=O)n(-c2ccc(F)cc2)[nH]1 please
89.6

Entry COc1ccc(/C(C#N)=C2C=C/C(=N/O)c3ccccc3\2)cc1 please
7.28

Entry Nc1ccc(N=Nc2ccc(O)cc2)c(N)n1 please
64.5

* * *

Tested on: NCI-H322M lung
protocol_description: NCI-60 one-dose screen, 48 h (100 = growth as untreated, 0 = no growth, -100 = all killed)
protocol_conditions: 10 µM
This is part of a sample that, as a whole, favours compounds with a hit. Of some 83,000 tested, about 20% had one in any assay.
growth by entry:
Supply the numeric figure in %, leaving out any unit text.

Would you please look over these solved cases?
1. CC(=O)OCC1CCCO1 (stereo not given) : 98.7
2. CCOc1ccc2[nH]c(=S)sc2c1 : 105
3. S=c1[nH]ccn1-c1ccccc1Cl : 133

Returns the measured growth for the input compound. Input: CC(C)OC(C(=O)O)c1ccccc1 (stereo not given)
117

* * *

growth by entry:
System: NCI-H226 lung
protocol_description: NCI-60 one-dose screen, 48 h (100 = growth as untreated, 0 = no growth, -100 = all killed)
protocol_conditions: 10 µM
This is part of a sample that, as a whole, favours compounds with a hit. Of some 83,000 tested, about 20% had one in any assay.
Supply the numeric figure in %, leaving out any unit text.

Would you please look over these solved cases?
1. CCc1nc(N)nc(N)c1-c1ccc(Cl)cc1 : 65.7
2. COS(=O)(=O)c1ccc(Br)cc1 : 101
3. COc1cc(/C=C/C(=O)c2ccccc2)cc(OC)c1OC : 98.7
4. OC(c1ccccn1)C(O)c1ccccn1 (stereo not drawn) : 110
5. N#Cc1ccc(OC(=O)Nc2ccc(Cl)c(Cl)c2)cc1 : 63.7
6. CCCCCCCCOC(=O)c1ccccn1 : 104

Returns the measured growth for the input compound. Input: CCOC(=O)Nc1nn[nH]n1
107

Entry Nc1ccc(N=Nc2ccc(S(=O)(=O)O)cc2)c2ccccc12 please
87

* * *

System: NCI-H460 lung
protocol_description: NCI-60 one-dose screen, 48 h (100 = growth as untreated, 0 = no growth, -100 = all killed)
protocol_conditions: 10 µM
Compounds without any hit were thinned out: in the full panel of roughly 83,000, 20% have a hit.
growth by entry:
Supply the numeric figure in %, leaving out any unit text.

Would you please look over these solved cases?
1. Cc1ccc(C)n1-c1ccsc1C(=O)NNC(=O)C(Cl)Cl : 104
2. CC1(c2ccccc2)NC(=O)NC1=O (stereo not drawn) : 118
3. Cc1ccc(C(O)C2CC2)cc1 (stereo not drawn) : 103
4. COC1=CC(=O)c2nc(Cl)ccc2C1=O : 115

Returns the measured growth for the input compound. Input: CC(=O)Oc1ccc(Br)cc1C(=O)O
106

Entry CCOC(=O)c1cc2cccc(OC)c2oc1=O please
110

Entry CCNCCCCNCCCCNCCCCNCCCCNCC please
76.1

* * *

Tested on: BT-549 breast
protocol_description: NCI-60 one-dose screen, 48 h (100 = growth as untreated, 0 = no growth, -100 = all killed)
protocol_conditions: 10 µM
Compounds without any hit were thinned out: in the full panel of roughly 83,000, 20% have a hit.
growth by entry:
Supply the numeric figure in %, leaving out any unit text.

Would you please look over these solved cases?
1) O=C(NN=C1CCCCC1)C(=O)NN=C1CCCCC1 : 100
2) CC(C)(N)COS(=O)(=O)O : 100
3) O=c1[nH][nH]c(=O)c2cc([N+](=O)[O-])ccc12 : 106
4) COc1ccc(/C=C/c2cccc[n+]2C)cc1 : 89.8
5) O=[N+]([O-])c1ccc(-c2noc(-c3cccs3)n2)cc1 : 78.3

Record lookup: for BT-549 breast, what growth belongs to CCOC(=O)CCCS(C)(=O)=O ?
100

* * *

System: SK-MEL-2 melanoma
protocol_description: NCI-60 one-dose screen, 48 h
protocol_conditions: 10 µM
This is part of a sample that, as a whole, favours compounds with a hit. Of some 83,000 tested, about 20% had one in any assay. Active and inactive are the calls of the source. The calls were made as follows: active = growth percent below 10; inactive = the rest.
Thanks in advance; please answer with one of these: active, inactive

1. Nc1nc(N)c(N=Nc2ccc(C(=O)O)cc2)c(N)n1 : inactive

Per the assay record, what outcome was assigned to S=c1nn[nH]c2ccccc12 ?
inactive

Entry Nc1ccc(C(=O)c2ccc(N)c(Br)c2)cc1Br please
active

Entry CCOC(=O)Nc1cc2c(c(N)n1)N=C(c1ccccc1)CO2 please
inactive

Entry Nc1nc(N)c2cc(S(=O)(=O)c3cccc(C(F)(F)F)c3)ccc2n1 please
inactive

Entry C=CCc1cc(C(C)=O)cc(OC)c1O please
inactive

Entry CCN(CC)CCNc1ccc(CO)c2sc3ccccc3c(=O)c12 please
inactive

Entry c1cc[n+](C2c3ccccc3C([n+]3ccccc3)c3ccccc32)cc1 (stereo not drawn) please
inactive

Entry CC12CC3CC1C(C(=O)O2)C3C(=O)O (stereo not drawn) please
inactive

Entry Cc1cc(C)cc(NCCC#N)c1 please
inactive

Entry CC1CC(O)CC(C)(C)C1 (stereo not drawn) please
inactive
